The measured values listed here are drawn from ChEMBL document CHEMBL5154822.

Experiment summary: Ratio of drug concentration in brain to plasma in ICR mouse at 1 mg/kg, ig measured after 0.25 hrs by LC/MS-MS analysis
Assay type: ADME, organism-based
Measurement context: po, read-out: BPR

{"columns": ["Molecule", "Kp at 0.25 h"],
 "data": [
  ["COc1cc2c(cc1OC)S(=O)(=O)C(F)(CC1CCN(Cc3cccc(F)c3)CC1)C2 (stereo unspecified)", 4.17]
]}

---

Experiment summary: Drug concentration in ICR mouse brain at 1 mg/kg, ig measured after 0.5 hrs by LC/MS-MS analysis
Assay type: ADME, organism-based
Measurement context: po, read-out: Ct
Readout label: concentration at 0.5 h (ng/mL)

{"columns": ["Molecule", "Readout label", "Reported result"],
 "data": [
  ["COc1cc2c(cc1OC)S(=O)(=O)C(F)(CC1CCN(Cc3cccc(F)c3)CC1)C2 (stereo unspecified)", "concentration at 0.5 h", 18.1]
]}

---

// reported pIC50 per item
Tested system: Acetylcholinesterase (Mus musculus, UniProt P21836)
Sequence (P21836 whole entry): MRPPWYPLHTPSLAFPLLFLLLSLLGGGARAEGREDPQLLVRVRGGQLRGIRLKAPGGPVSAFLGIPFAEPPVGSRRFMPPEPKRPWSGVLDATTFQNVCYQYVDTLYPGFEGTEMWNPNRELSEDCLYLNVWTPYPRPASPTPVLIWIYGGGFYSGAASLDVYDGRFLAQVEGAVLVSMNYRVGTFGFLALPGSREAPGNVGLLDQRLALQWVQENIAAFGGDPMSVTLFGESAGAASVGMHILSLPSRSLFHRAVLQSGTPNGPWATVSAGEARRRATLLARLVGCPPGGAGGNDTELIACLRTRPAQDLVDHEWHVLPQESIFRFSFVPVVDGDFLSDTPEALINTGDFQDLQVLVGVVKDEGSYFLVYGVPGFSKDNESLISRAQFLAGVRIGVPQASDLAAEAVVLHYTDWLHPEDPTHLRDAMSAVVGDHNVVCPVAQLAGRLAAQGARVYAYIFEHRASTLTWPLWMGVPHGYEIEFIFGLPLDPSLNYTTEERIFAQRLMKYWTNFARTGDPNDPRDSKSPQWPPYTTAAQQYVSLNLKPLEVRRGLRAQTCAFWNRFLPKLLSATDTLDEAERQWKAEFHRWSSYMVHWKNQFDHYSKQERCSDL
Experiment summary: Inhibition of AChE in mouse cerebral cortex using acetylthiocholine iodide as substrate preincubated for 10 mins followed by substrate addition and measured for 180 secs by Ellman's spectrophotometric method
Format: tissue-based
pIC50: −log10 of the molar value.
Readout label: pIC50

{"columns": ["Compound", "Reported result"],
 "data": [
  ["COc1cc2c(cc1OC)S(=O)(=O)C(CC1CCN(Cc3ccc(F)cc3)CC1)C2 (stereo not given)", 7.95],
  ["COc1cc2c(cc1OC)S(=O)(=O)C(CC1CCN(Cc3ccccc3F)CC1)C2 (stereo not given)", 7.94],
  ["COc1ccc(S(=O)(=O)/C=C/C2CCN(Cc3ccccc3)CC2)cc1OC", 7.17],
  ["COc1cc2c(cc1OC)S(=O)(=O)C(CC1CCN(Cc3ccccc3)CC1)=C2", 6.50],
  ["COc1cc2c(cc1OC)S(=O)(=O)C(CC1CCN(Cc3ccc(F)cc3F)CC1)C2 (stereo not given)", 7.83],
  ["COc1cc2c(cc1OC)S(=O)(=O)/C(=C/C1CCN(Cc3ccccc3)CC1)CC2", 5.74],
  ["COc1cc2c(cc1OC)S(=O)(=O)C(CC1CCN(Cc3ccccc3)CC1)C2 (stereo not given)", 8.36],
  ["COc1cc2c(cc1OC)S(=O)(=O)C(CC1(F)CCN(Cc3cccc(Cl)c3)CC1)C2 (stereo not given)", 8.30],
  ["COc1cc2c(cc1OC)S(=O)(=O)C(CC1(F)CCN(Cc3ccccc3C)CC1)C2 (stereo not given)", 7.92],
  ["COc1cc2c(cc1OC)S(=O)(=O)C(CC1CCN(Cc3ccc(F)c(Cl)c3)CC1)C2 (stereo not given)", 7.94]
]}

---

Experiment summary: Drug concentration in ICR mouse brain at 1 mg/kg, ig measured after 2 hrs by LC/MS-MS analysis
Assay type: ADME, organism-based
Measurement context: po, read-out: Ct

{"columns": ["Molecule", "concentration at 2 h / ng/mL"],
 "data": [
  ["COc1cc2c(cc1OC)S(=O)(=O)C(F)(CC1CCN(Cc3cccc(F)c3)CC1)C2 (stereo unspecified)", 21.8]
]}

---

Experiment summary: Ratio of drug concentration in brain to plasma in ICR mouse at 1 mg/kg, ig measured after 1 hr by LC/MS-MS analysis
Type: ADME, organism-based
Measurement context: po, read-out: BPR

{"columns": ["Compound", "Kp at 1 h"],
 "data": [
  ["COc1cc2c(cc1OC)S(=O)(=O)C(F)(CC1CCN(Cc3cccc(F)c3)CC1)C2 (stereo unspecified)", 6.33]
]}

---

Experiment summary: Drug concentration in ICR mouse brain at 1 mg/kg, ig measured after 1 hr by LC/MS-MS analysis
Type: ADME, organism-based
Measurement context: po, read-out: Ct

{"columns": ["Molecule", "concentration at 1 h, ng/mL"],
 "data": [
  ["COc1cc2c(cc1OC)S(=O)(=O)C(F)(CC1CCN(Cc3cccc(F)c3)CC1)C2 (stereo unspecified)", 21.9]
]}

---

Experiment summary: Drug concentration in ICR mouse brain at 1 mg/kg, ig measured after 4 hrs by LC/MS-MS analysis
Assay type: ADME, organism-based
Measurement context: po, read-out: Ct
Readout label: concentration at 4 h (ng/mL)

{"columns": ["Compound", "Display unit", "Reported result"],
 "data": [
  ["COc1cc2c(cc1OC)S(=O)(=O)C(F)(CC1CCN(Cc3cccc(F)c3)CC1)C2 (stereo unspecified)", "ng/mL", 21.7]
]}

---

Experiment summary: Drug concentration in ICR mouse plasma at 1 mg/kg, ig measured after 4 hrs by LC/MS-MS analysis
Format: ADME, organism-based
Measurement context: po
Readout label: concentration at 4 h (ng/mL)

{"columns": ["Molecule", "Display unit", "Reported result"],
 "data": [
  ["COc1cc2c(cc1OC)S(=O)(=O)C(F)(CC1CCN(Cc3cccc(F)c3)CC1)C2 (stereo unspecified)", "ng/mL", 2.7]
]}

---

Experiment summary: Ratio of drug concentration in brain to plasma in ICR mouse at 1 mg/kg, ig measured after 4 hrs by LC/MS-MS analysis
Assay type: ADME, organism-based
Measurement context: po, read-out: BPR

{"columns": ["Compound", "Kp at 4 h"],
 "data": [
  ["COc1cc2c(cc1OC)S(=O)(=O)C(F)(CC1CCN(Cc3cccc(F)c3)CC1)C2 (stereo unspecified)", 8.47]
]}

---

Experiment summary: Drug concentration in ICR mouse plasma at 1 mg/kg, ig measured after 0.5 hrs by LC/MS-MS analysis
Assay type: ADME, organism-based
Measurement context: po

{"columns": ["Molecule", "concentration at 0.5 h (ng/mL)"],
 "data": [
  ["COc1cc2c(cc1OC)S(=O)(=O)C(F)(CC1CCN(Cc3cccc(F)c3)CC1)C2 (stereo unspecified)", 3.42]
]}

---

Experiment summary: Ratio of drug concentration in brain to plasma in ICR mouse at 1 mg/kg, ig measured after 0.5 hrs by LC/MS-MS analysis
Type: ADME, organism-based
Measurement context: po, read-out: BPR
Readout label: Kp at 0.5 h

{"columns": ["Compound", "Readout label", "Reported result"],
 "data": [
  ["COc1cc2c(cc1OC)S(=O)(=O)C(F)(CC1CCN(Cc3cccc(F)c3)CC1)C2 (stereo unspecified)", "Kp at 0.5 h", 5.24]
]}

---

Experiment summary: Drug concentration in ICR mouse plasma at 1 mg/kg, ig measured after 0.25 hrs by LC/MS-MS analysis
Format: ADME, organism-based
Measurement context: po

{"columns": ["Molecule", "concentration at 0.25 h, ng/mL"],
 "data": [
  ["COc1cc2c(cc1OC)S(=O)(=O)C(F)(CC1CCN(Cc3cccc(F)c3)CC1)C2 (stereo unspecified)", 2.89]
]}
